Test system: Streptococcus pneumoniae
protocolSummary: Antimicrobial activity against penicillin-susceptible Streptococcus pneumoniae by broth microdilution method
Format: functional
readoutType: MIC50 (µg/mL)

compound: CO/N=C(\C(=O)N[C@@H]1C(=O)N2C(C(=O)O)=C(CSc3nc(=O)c(O)nn3C)CS[C@H]12)c1csc(N)n1
measuredNumber: 0.03
--
compound: CCO/N=C(\C(=O)N[C@@H]1C(=O)N2C(C(=O)[O-])=C(Sc3nc(-c4cc[n+](C)cc4)cs3)CS[C@H]12)c1nsc(NP(=O)(O)O)n1
measuredNumber: 0.015
--
compound: C[C@@H](O)[C@H]1C(=O)N2C(C(=O)O)=C(SCCNC=N)C[C@H]12 [IMIPENEM ANHYDROUS]
measuredNumber: 0.015
--
compound: C[C@H]1COc2c(N3CCN(C)CC3)c(F)cc3c(=O)c(C(=O)O)cn1c23.C[C@H]1COc2c(N3CCN(C)CC3)c(F)cc3c(=O)c(C(=O)O)cn1c23.O
measuredNumber: 1
